The measured values listed here are drawn from patent US12077555B2.

Form field: DC50 (one value per entry).
Biological target: STAT3 (Homo sapiens)
Test: STAT3 HiBiT degradation assay in transfected A549 cells
Type: cell-based
Parameters: expressed in transfected cells; host or cells: A549
Conditions: A549, 24 h; read-out: STAT3 HiBiT A549 degradation 24 h: Average external-Abs DC50
Procedure: Compound preparation and Cell seeding: The transfected A549 cells were harvested from dish into cell culture medium and cell numbers counted. […] Detection: Plates were removed from incubators and equilibrated at room temperature for 15 minutes. […] 30 μL of Nano-Glo Hibit Lytic Detection reagent was added into each well to be detected. The plates were held at room temperature for 10 min followed by reading on EnSpire. […]

1) CC(C)c1ccc(CNC(=O)[C@H](CCC(N)=O)NC(=O)[C@@H]2Cc3cc(CCCCCCc4ccc5c(c4)n(C)c(=O)n5C4CCC(=O)NC4=O)cc4c3N2C(=O)[C@@H](NC(=O)c2cc3cc(C(=O)P(=O)(O)O)ccc3[nH]2)CC4)cc1 (some centres unmarked) [Compound I-232] :: 10 to 100 nM

Cn1c(=O)n(C2CCC(=O)NC2=O)c2ccc(CCCCCCOc3ccc4c5c3CC[C@H](NC(=O)c3cc6cc(C(=O)P(=O)(O)O)ccc6[nH]3)C(=O)N5[C@H](C(=O)N[C@@H](CCC(N)=O)C(=O)NC(c3ccccc3)c3ccccc3)C4)cc21 (some centres unmarked) [Compound I-269] yielded DC50 of > 1000 nM

----------
biological target: STAT3 (Homo sapiens); experiment: STAT3 HiBiT degradation assay in transfected A549 cells; assay type: cell-based; design: expressed in transfected cells; host or cells: A549; conditions: A549, 24 h; read-out: STAT3 HiBiT A549 degradation 24 h: Average external-Abs DC50
Measured Metric: DC50

Below, 2 compounds whose answers are already recorded.
1. CC(=O)N1CC[C@H]2CC[C@@H](C(=O)N[C@@H](CCC(N)=O)COc3cccc(CCCC(=O)N[C@H](C(=O)N4C[C@H](O)C[C@H]4C(=O)N[C@@H](C)c4ccc(-c5scnc5C)cc4)C(C)(C)C)c3Cl)N2C(=O)[C@@H](NC(=O)c2cc3cc(C(=O)P(=O)(O)O)ccc3[nH]2)C1 :: < 10 nM
2. CC(C)c1ccc(CNC(=O)[C@H](CCC(N)=O)NC(=O)[C@@H]2CC[C@@H]3CCN(C(=O)[C@H]4CC[C@@H](CCc5ccc6c(c5)n(C)c(=O)n6C5CCC(=O)NC5=O)CC4)C[C@H](NC(=O)c4cc5cc(C(=O)P(=O)(O)O)ccc5[nH]4)C(=O)N32)cc1 (stereo partly drawn) :: < 10 nM

// below: DC50 requested for another compound
DC50 reading for Cc1ncsc1-c1ccc([C@H](C)NC(=O)[C@@H]2C[C@@H](O)CN2C(=O)[C@@H](NC(=O)CCCCCc2cc(F)cc(NC(=O)[C@H](CCC(N)=O)NC(=O)[C@@H]3Cc4cccc5c4N3C(=O)[C@@H](NC(=O)c3cc4cc(C(=O)P(=O)(O)O)ccc4[nH]3)CC5)c2)C(C)(C)C)cc1 : 10 to 100 nM

----------
molecular target: STAT3 (Homo sapiens, UniProt P40763); experiment: STAT3 HiBiT degradation assay in transfected A549 cells; format: cell-based; parameters: expressed in transfected cells; host or cells: A549; details: A549, 24 h; read-out: STAT3 HiBiT A549 degradation 24 h: Average external-Abs DC50
Sequence (P40763 whole entry): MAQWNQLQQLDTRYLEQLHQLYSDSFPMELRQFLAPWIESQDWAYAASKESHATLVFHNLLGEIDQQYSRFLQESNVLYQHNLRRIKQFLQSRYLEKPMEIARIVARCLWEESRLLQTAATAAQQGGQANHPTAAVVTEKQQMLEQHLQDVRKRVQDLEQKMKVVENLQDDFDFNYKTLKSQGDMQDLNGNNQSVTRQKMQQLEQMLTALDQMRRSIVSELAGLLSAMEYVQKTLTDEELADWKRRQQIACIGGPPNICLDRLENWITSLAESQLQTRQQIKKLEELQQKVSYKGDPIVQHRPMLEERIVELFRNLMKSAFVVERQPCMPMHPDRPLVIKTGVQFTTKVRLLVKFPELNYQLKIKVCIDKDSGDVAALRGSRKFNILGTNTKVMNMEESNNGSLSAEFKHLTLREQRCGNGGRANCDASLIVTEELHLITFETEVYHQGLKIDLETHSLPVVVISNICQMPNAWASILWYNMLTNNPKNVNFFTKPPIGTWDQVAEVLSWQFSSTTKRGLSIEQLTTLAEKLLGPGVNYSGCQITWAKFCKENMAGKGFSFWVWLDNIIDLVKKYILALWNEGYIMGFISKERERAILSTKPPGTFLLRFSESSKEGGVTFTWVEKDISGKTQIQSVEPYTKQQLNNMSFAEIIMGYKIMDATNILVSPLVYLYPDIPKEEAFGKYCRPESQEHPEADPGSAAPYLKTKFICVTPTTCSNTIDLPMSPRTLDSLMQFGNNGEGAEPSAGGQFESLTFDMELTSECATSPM
Measured Metric: DC50

The examples below pair each entry with its known result.
1) Cc1cc(CCCCCC(=O)N[C@H](C(=O)N2C[C@H](O)C[C@H]2C(=O)N[C@@H](C)c2ccc(-c3scnc3C)cc2)C(C)(C)C)c(F)c(OC[C@H](CCC(N)=O)NC(=O)[C@@H]2Cc3cccc4c3N2C(=O)[C@@H](NC(=O)c2cc3cc(C(=O)P(=O)(O)O)ccc3[nH]2)CC4)c1 :: < 10 nM
2) Cc1ncsc1-c1ccc(CNC(=O)[C@@H]2C[C@@H](O)CC2C(=O)[C@@H](NC(=O)CCCCC/C=C\COC[C@H](CCC(N)=O)NC(=O)[C@@H]2Cc3cccc4c3N2C(=O)[C@@H](NC(=O)c2cc3cc(C(=O)P(=O)(O)O)ccc3[nH]2)CC4)C(C)(C)C)cc1 (stereo partly shown) :: 100 to 1000 nM
3) Cc1ncsc1-c1ccc([C@H](C)NC(=O)[C@@H]2C[C@@H](O)CN2C(=O)[C@@H](NC(=O)Cc2cccc(OC[C@H](CCC(N)=O)NC(=O)[C@@H]3Cc4cccc5c4N3C(=O)[C@@H](NC(=O)c3cc4cc(C(=O)P(=O)(O)O)ccc4[nH]3)CC5)c2)C(C)(C)C)cc1 :: > 1000 nM

The value of DC50 measured for the compound Cc1cc(CCCCCC(=O)N[C@H](C(=O)N2C[C@H](O)C[C@H]2C(=O)N[C@@H](C)c2ccc(-c3scnc3C)cc2)C(C)(C)C)cc(OC[C@H](CCC(N)=O)NC(=O)[C@@H]2Cc3cccc4c3N2C(=O)[C@@H](NC(=O)c2cc3cc(C(=O)P(=O)(O)O)ccc3[nH]2)CC4)c1 turned out to be < 10 nM

----------
As shown below, each of these compounds has a reported DC50 value.
biological target: UniProt:P40763; assay: STAT3 HiBiT degradation assay in transfected A549 cells; format: cell-based; parameters: expressed in transfected cells; host or cells: A549; details: A549, 24 h; read-out: STAT3 HiBiT A549 degradation 24 h: Average external-Abs DC50

1) Cc1ncsc1-c1ccc(CNC(=O)[C@@H]2C[C@@H](O)CN2C(=O)[C@@H](NC(=O)C2CCN(c3ccc(CO[C@H](C)[C@H](CCC(N)=O)NC(=O)[C@@H]4Cc5cccc6c5N4C(=O)[C@@H](NC(=O)c4cc5cc(C(=O)P(=O)(O)O)ccc5[nH]4)CC6)cc3)CC2)C(C)(C)C)cc1 :: > 1 µM

// next entry
Reported DC50 for Cc1ncsc1-c1ccc(CNC(=O)[C@@H]2C[C@@H](O)CN2C(=O)[C@@H](NC(=O)CCCCc2cccc(OC[C@H](CCC(N)=O)NC(=O)[C@@H]3Cc4cccc5c4N3C(=O)[C@@H](NC(=O)c3cc4cc(C(=O)P(=O)(O)O)ccc4[nH]3)CC5)c2)C(C)(C)C)cc1 was 0.01 to 0.1 µM

----------
target: UniProtKB P40763; assay: STAT3 HiBiT degradation assay in transfected A549 cells; type: cell-based; parameters: expressed in transfected cells; host or cells: A549; details: A549, 24 h; read-out: STAT3 HiBiT A549 degradation 24 h: Average external-Abs DC50
Catalogue of compounds with associated DC50

Example results:
1. Cc1ncsc1-c1ccc(CNC(=O)[C@@H]2C[C@@H](O)CN2C(=O)[C@@H](NC(=O)CCCCCCCC(=O)N2CC[C@H]3CC[C@@H](C(=O)N[C@@H](CCC(N)=O)C(=O)NC(c4ccccc4)c4ccccc4)N3C(=O)[C@@H](NC(=O)c3cc4cc(C(=O)P(=O)(O)O)ccc4[nH]3)C2)C(C)(C)C)cc1 [Compound I-147] :: > 1 µM
2. Cn1c(=O)n(C2CCC(=O)NC2=O)c2ccc(CC[C@H]3CC[C@@H](C(=O)N4CC[C@H]5CC[C@@H](C(=O)N[C@@H](CCC(N)=O)C(=O)NC(c6ccccc6)c6ccccc6)N5C(=O)[C@@H](NC(=O)c5cc6cc(C(=O)P(=O)(O)O)ccc6[nH]5)C4)CC3)cc21 (some centres unmarked) [Compound I-202] :: 0.01 to 0.1 µM
3. Cc1ncsc1-c1ccc(CNC(=O)[C@@H]2C[C@@H](O)CN2C(=O)[C@@H](NC(=O)CC2CCN(c3ccc(CO[C@H](C)[C@H](CCC(N)=O)NC(=O)[C@@H]4Cc5cccc6c5N4C(=O)[C@@H](NC(=O)c4cc5cc(C(=O)P(=O)(O)O)ccc5[nH]4)CC6)cc3)CC2)C(C)(C)C)cc1 [Compound I-162] :: > 1 µM
4. Cn1c(=O)n(C2CCC(=O)NC2=O)c2ccc(C3CCN(CCC(=O)N4CC[C@H]5CC[C@@H](C(=O)N[C@@H](CCC(N)=O)C(=O)NC(c6ccccc6)c6ccccc6)N5C(=O)[C@@H](NC(=O)c5cc6cc(C(=O)P(=O)(O)O)ccc6[nH]5)C4)CC3)cc21 (some centres unmarked) [Compound I-177] :: 0.1 to 1 µM
5. Cc1ncsc1-c1ccc(CNC(=O)[C@@H]2C[C@@H](O)CN2C(=O)[C@@H](NC(=O)CCCCCCCCCOC[C@H](CCC(N)=O)NC(=O)[C@@H]2Cc3cccc4c3N2C(=O)[C@@H](NC(=O)c2cc3cc(C(=O)P(=O)(O)O)ccc3[nH]2)CC4)C(C)(C)C)cc1 [Compound I-153] :: > 1 µM

The compound Cn1c(=O)n(C2CCC(=O)NC2=O)c2ccc(CCCCCCC(=O)N3CC[C@H]4CC[C@@H](C(=O)N[C@@H](CCC(N)=O)C(=O)NCc5ccc(S(C)(=O)=O)cc5)N4C(=O)[C@@H](NC(=O)c4cc5cc(C(=O)P(=O)(O)O)ccc5[nH]4)C3)cc21 (some centres unmarked) [Compound I-288] , when measured on UniProtKB P40763, yielded DC50 of 0.01 to 0.1 µM

Bench note, UniProtKB P40763: entry Cc1ncsc1-c1ccc([C@H](C)NC(=O)[C@@H]2C[C@@H](O)CC2C(=O)[C@@H](NC(=O)OCCCCc2cccc(N(C)CC(CCC(N)=O)NC(=O)[C@@H]3Cc4cccc5c4N3C(=O)[C@@H](NC(=O)c3cc4cc(C(=O)P(=O)(O)O)ccc4[nH]3)CC5)c2F)C(C)(C)C)cc1 (some centres unmarked) [Compound I-254] , its DC50 = 0.1 to 1 µM

Noted DC50 for Cc1ncsc1-c1ccc(CNC(=O)[C@@H]2C[C@@H](O)CN2C(=O)C(NC(=O)CCCCc2ccc(CNC(=O)[C@H](CCC(N)=O)NC(=O)[C@@H]3Cc4cccc5c4N3C(=O)[C@@H](NC(=O)c3cc4cc(C(=O)P(=O)(O)O)ccc4[nH]3)CC5)cc2)C(C)(C)C)cc1 (some centres unmarked) [Compound I-139] , tested on UniProtKB P40763: > 1 µM
